Assignment: determine reported Ki for the given molecules.
Target: MMP-13h (Homo sapiens (Human))
Assay: Inhibition constant (Ki) on MMP-13h
Format: biochemical
Conditions: read-out: Ki MMP-13h; human MMP-13

{"columns": ["Molecule", "Assay Readout", "Experimental Value"],
 "data": [
  ["NC(=O)[C@H](CCC(=O)O)NC(=O)[C@H](CC(=O)O)NC(=O)CCc1ccc(-c2ccc(-c3ccccc3)cc2)cc1", "Ki", "0.0135 µM"],
  ["NC(=O)[C@@H](CCC(=O)O)NC(=O)[C@@H](CCC(=O)O)NC(=O)CCc1cc(-c2ccc(-c3cccc(Cl)c3)cc2)no1", "Ki", "0.114 µM"]
]}

Below are 7 molecules. Give each one its Ki.
1. Cn1ccc(-c2ccc(CCC(=O)N[C@@H](CCC(=O)O)C(=O)N[C@@H](CCC(=O)O)C(N)=O)cc2)n1
2. NC(=O)[C@H](CCC(=O)O)NC(=O)[C@H](CCC(=O)O)NC(=O)[C@H](Cc1cc(-c2ccc(-c3cccc(Cl)c3)cc2)no1)CP(=O)(O)c1ccc(Br)cc1 [RXP470, reference compound]
3. CC(C)C[C@H](NC(=O)CCc1ccc(-c2ccc(-c3ccccc3)cc2)cc1)C(=O)N[C@@H](CCC(=O)O)C(N)=O
4. NC(=O)[C@H](Cc1c[nH]cn1)NC(=O)[C@H](CCC(=O)O)NC(=O)CCc1ccc(-c2ccc(-c3ccccc3)cc2)cc1
5. NC(=O)[C@H](CC(=O)O)NC(=O)[C@H](CCC(=O)O)NC(=O)CCc1ccc(-c2cc(-c3ccccc3)cs2)cc1
6. NC(=O)[C@H](CC(=O)O)NC(=O)[C@H](CCC(=O)O)NC(=O)CCc1cc(-c2ccc(-c3cccc(Cl)c3)cc2)no1
7. C[C@H](NC(=O)[C@H](CCC(=O)O)NC(=O)CCc1ccc(-c2ccccc2)cc1)C(N)=O

[out]
["0.518 µM", "0.013 µM", "0.443 µM", "0.036 µM", "0.933 µM", "0.03 µM", "> 1 µM"]

Would you mind giving Ki for every molecule in the list below?
1. NC(=O)[C@H](CC(=O)O)NC(=O)[C@H](CC(=O)O)NC(=O)CCc1cc(-c2ccc(-c3cccc(Cl)c3)cc2)no1
2. NC(=O)[C@H](CCC(=O)O)NC(=O)[C@H](CCC(=O)O)NC(=O)CCc1ccc(-c2ccc(-c3nc4ccccc4s3)s2)cc1
3. NC(=O)[C@H](CCC(=O)O)NC(=O)[C@H](CCC(=O)O)NC(=O)CCc1ccc(-c2cc(Cl)cc(Cl)c2)cc1
4. NC(=O)[C@H](CCCC(=O)O)NC(=O)[C@H](CCC(=O)O)NC(=O)CCc1cc(-c2ccc(-c3cccc(Cl)c3)cc2)no1

[out]
1. 0.018 µM
2. 0.033 µM
3. > 1 µM
4. 0.052 µM

###

Target: MMP-13h (Homo sapiens (Human), UniProt P45452)
Test: Inhibition constant (Ki) on MMP-13h
Type: biochemical
Settings: read-out: Ki MMP-13h; human MMP-13
Provide the reported pKi of each item.
One number for each entry, as −log10 of the molar value.

{"columns": ["Structure Smiles String", "Experimental Value"],
 "data": [
  ["NC(=O)[C@H](CCC(=O)O)NC(=O)[C@H](CCC(=O)O)NC(=O)[C@@H](CC(=O)O)Cc1ccc(-c2cc(-c3ccccc3)cs2)cc1", 6.70],
  ["NC(=O)[C@H](CCC(=O)O)NC(=O)[C@H](CCC(=O)O)NC(=O)CCc1ccc(-c2ccc(-c3ccccc3)cc2)cc1", 7.70]
]}

Give pKi for each of the items listed below.
1. NC(=O)[C@H](CCC(=O)O)NC(=O)[C@H](Cc1c[nH]cn1)NC(=O)CCc1ccc(-c2ccc(-c3ccccc3)cc2)cc1
2. CC(C)C[C@H](NC(=O)[C@H](CCC(=O)O)NC(=O)CCc1ccc(-c2ccc(-c3ccccc3)cc2)cc1)C(N)=O
3. NC(=O)[C@H](CCC(=O)O)NC(=O)[C@H](CCC(=O)O)NC(=O)CCc1cc(-c2ccc(-c3cccc(Cl)c3)cc2)no1

[out]
[6.42, 7.09, 7.40]

For every item below, please supply its pKi.
1. O=C(O)CC[C@H](NC(=O)CCc1ccc(-c2cccs2)cc1)C(=O)Nc1cccc(CC(=O)O)c1
2. NC(=O)[C@H](Cc1ccc(O)cc1)NC(=O)[C@H](CCC(=O)O)NC(=O)CCc1ccc(-c2cccs2)cc1
3. NC(=O)[C@H](CCC(=O)O)NC(=O)[C@H](CCC(=O)O)NC(=O)CCc1ccc(C#Cc2ccccc2)cc1
4. NC(=O)[C@H](CCC(=O)O)NC(=O)[C@H](CCC(=O)O)NC(=O)CCc1cc(-c2ccccc2)on1

[out]
6.44
6.23
6.22
6.26

Hi, could you look up pKi for each item in my list?
1. NC(=O)[C@H](CO)NC(=O)[C@H](CCC(=O)O)NC(=O)CCc1ccc(-c2ccc(-c3ccccc3)cc2)cc1
2. NC(=O)CC[C@H](NC(=O)[C@H](CCC(=O)O)NC(=O)CCc1ccc(-c2cc(-c3ccccc3)cs2)cc1)C(N)=O

[out]
7.78
6.28

###

Biological target: MMP-12h (Homo sapiens (Human), UniProt P39900)
Sequence (P39900 106-470): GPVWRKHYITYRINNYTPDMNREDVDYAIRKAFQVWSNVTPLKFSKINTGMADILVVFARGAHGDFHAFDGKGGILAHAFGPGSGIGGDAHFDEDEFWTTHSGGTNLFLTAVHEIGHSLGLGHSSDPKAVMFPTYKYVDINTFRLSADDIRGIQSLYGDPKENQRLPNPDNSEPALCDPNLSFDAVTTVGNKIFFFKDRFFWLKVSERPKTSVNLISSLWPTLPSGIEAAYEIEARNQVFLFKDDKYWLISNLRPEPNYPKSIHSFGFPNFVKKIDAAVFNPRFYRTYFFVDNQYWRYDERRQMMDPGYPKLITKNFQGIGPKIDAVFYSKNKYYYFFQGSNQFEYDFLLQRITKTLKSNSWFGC
Assay: Inhibition constant (Ki) on MMP-12h
Type: biochemical
Settings: human MMP-12
Assay Readout: Ki (nM)
Numbers only, in nM.

Solved entries:
{"columns": ["Structure Smiles String", "Experimental Value"],
 "data": [
  ["NC(=O)[C@H](CCC(=O)O)NC(=O)[C@H](CCC(=O)O)NC(=O)CCc1ccc(-c2nc3ccccc3s2)cc1", 2.2],
  ["NC(=O)[C@H](CCC(=O)O)NC(=O)[C@H](CCCC(=O)O)NC(=O)CCc1ccc(-c2cc(-c3ccccc3)cs2)cc1", 56]
]}

Could you now look at the following compound, please?
[in] I have this compound here, `NC(=O)[C@H](CCC(=O)O)NC(=O)[C@H](CCC(=O)O)NC(=O)CCc1ccc(-c2csnn2)cc1` , and I need its recorded Ki.
[out] 158

###

Biological target: MMP-2h (Homo sapiens (Human), UniProt P08253)
Sequence (P08253 110-660): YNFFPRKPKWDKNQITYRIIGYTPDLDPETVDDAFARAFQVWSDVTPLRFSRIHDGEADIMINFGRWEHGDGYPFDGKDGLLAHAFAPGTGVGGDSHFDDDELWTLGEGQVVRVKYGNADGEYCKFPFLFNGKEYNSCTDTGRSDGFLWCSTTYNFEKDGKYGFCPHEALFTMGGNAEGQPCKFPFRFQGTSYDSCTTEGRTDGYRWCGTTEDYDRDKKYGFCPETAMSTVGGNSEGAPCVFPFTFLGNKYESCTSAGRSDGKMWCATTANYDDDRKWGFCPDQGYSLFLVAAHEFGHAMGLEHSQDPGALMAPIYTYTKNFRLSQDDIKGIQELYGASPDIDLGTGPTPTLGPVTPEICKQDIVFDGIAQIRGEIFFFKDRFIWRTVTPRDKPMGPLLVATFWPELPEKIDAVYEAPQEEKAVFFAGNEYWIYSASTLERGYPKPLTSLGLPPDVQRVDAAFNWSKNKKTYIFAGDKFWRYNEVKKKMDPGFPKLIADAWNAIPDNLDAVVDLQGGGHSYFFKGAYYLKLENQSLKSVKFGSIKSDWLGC
Test: Inhibition constant (Ki) on MMP-2h
Type: biochemical
Conditions: read-out: Ki MMP-2h; human MMP-2
Assay Readout: pKi
Give bare numbers, as −log10 of the molar value.

The following compounds have reported results that may help.
{"columns": ["Structure Smiles String", "Experimental System", "pKi"],
 "data": [
  ["NC(=O)[C@H](CO)NC(=O)[C@H](CCC(=O)O)NC(=O)CCc1ccc(-c2ccccc2)cc1", "MMP-2h (Homo sapiens (Human), UniProt P08253)", 6.10],
  ["NC(=O)[C@H](CCCC(=O)O)NC(=O)[C@H](CCC(=O)O)NC(=O)CCc1cc(-c2ccc(-c3cccc(Cl)c3)cc2)no1", "MMP-2h (Homo sapiens (Human), UniProt P08253)", 6.82],
  ["NC(=O)[C@H](CCC(=O)O)NC(=O)[C@H](CC(=O)O)NC(=O)CCc1ccc(-c2ccc(-c3ccccc3)cc2)cc1", "MMP-2h (Homo sapiens (Human), UniProt P08253)", 7.41],
  ["NC(=O)[C@H](CCC(=O)O)NC(=O)[C@H](CCC(=O)O)NC(=O)CCc1cc(-c2ccc(-c3cccc(Cl)c3)cc2)no1", "MMP-2h (Homo sapiens (Human), UniProt P08253)", 7.12]
]}

Provide pKi for all items below, preserving their order.
1. O=C(O)CC[C@H](NC(=O)CCc1ccc(-c2cc(-c3ccccc3)cs2)cc1)C(=O)Nc1cccc(CC(=O)O)c1
2. NC(=O)[C@H](CO)NC(=O)[C@H](CCC(=O)O)NC(=O)CCc1ccc(-c2ccc(-c3ccccc3)cc2)cc1

[out]
[6.47, 7.51]

###

Target: MMP-3h (Homo sapiens (Human), UniProt P08254)
Sequence (P08254 100-477): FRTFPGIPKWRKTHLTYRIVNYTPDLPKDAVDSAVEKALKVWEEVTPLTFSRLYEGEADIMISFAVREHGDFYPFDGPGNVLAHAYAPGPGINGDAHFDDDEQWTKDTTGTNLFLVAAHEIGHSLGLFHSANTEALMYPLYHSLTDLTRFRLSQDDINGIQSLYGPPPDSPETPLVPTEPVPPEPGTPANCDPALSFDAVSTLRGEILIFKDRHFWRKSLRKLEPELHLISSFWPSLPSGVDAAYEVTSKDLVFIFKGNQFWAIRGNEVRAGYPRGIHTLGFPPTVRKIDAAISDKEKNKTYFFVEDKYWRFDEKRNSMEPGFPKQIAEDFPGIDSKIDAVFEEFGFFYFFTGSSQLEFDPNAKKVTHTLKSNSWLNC
Experiment: Inhibition constant (Ki) on MMP-3h
Format: biochemical
Conditions: read-out: Ki MMP-3h; human MMP-3
pKi: −log10 of the molar value.
Give pKi for every item shown.

Example cases with answers are listed next.
{"columns": ["Structure Smiles String", "Experimental System", "Experimental Value"],
 "data": [
  ["NC(=O)[C@H](CC(=O)O)NC(=O)[C@H](CC(=O)O)NC(=O)CCc1cc(-c2ccc(-c3cccc(Cl)c3)cc2)no1", "MMP-3h (Homo sapiens (Human), UniProt P08254)", 7.07],
  ["Cc1ccc(-c2ccc(CCC(=O)N[C@@H](CCC(=O)O)C(=O)N[C@@H](CCC(=O)O)C(N)=O)cc2)s1", "MMP-3h (Homo sapiens (Human), UniProt P08254)", "< 6.00"]
]}

Batch: pKi for all items listed.
1. NC(=O)[C@H](CC(=O)O)NC(=O)[C@H](CCC(=O)O)NC(=O)CCc1ccc(-c2ccc(-c3ccccc3)cc2)cc1
2. NC(=O)[C@H](CCC(=O)O)NC(=O)[C@H](Cc1c[nH]cn1)NC(=O)CCc1ccc(-c2ccc(-c3ccccc3)cc2)cc1
3. NC(=O)[C@H](CCC(=O)O)NC(=O)[C@H](Cc1ccc(O)cc1)NC(=O)CCc1ccc(-c2ccc(-c3ccccc3)cc2)cc1
4. NC(=O)[C@H](CCC(=O)O)NC(=O)[C@H](CCC(=O)O)NC(=O)CCc1noc(-c2ccccc2)n1
5. NC(=O)[C@H](CO)NC(=O)[C@H](CCC(=O)O)NC(=O)CCc1ccc(-c2ccccc2)cc1

[out]
1: 6.77; 2: < 6.00; 3: 6.60; 4: < 5.30; 5: < 5.30

For each of the items listed, what is its pKi?
1. NC(=O)[C@H](CCC(=O)O)NC(=O)[C@H](CCC(=O)O)NC(=O)CCc1ccc(-c2ccc(-c3nc4ccccc4s3)s2)cc1
2. Cn1ccc(-c2ccc(CCC(=O)N[C@@H](CCC(=O)O)C(=O)N[C@@H](CCC(=O)O)C(N)=O)cc2)n1
3. NC(=O)[C@H](CCC(=O)O)NC(=O)[C@H](CCC(=O)O)NC(=O)CCc1ccc(-c2cccc(C(=O)O)c2)cc1
4. NC(=O)[C@@H](CCC(=O)O)NC(=O)[C@@H](CCC(=O)O)NC(=O)CCc1cc(-c2ccc(-c3cccc(Cl)c3)cc2)no1
5. CC(C)C[C@H](NC(=O)[C@H](CCC(=O)O)NC(=O)CCc1ccc(-c2cccs2)cc1)C(N)=O
6. CC(C)C[C@H](NC(=O)[C@H](CCC(=O)O)NC(=O)CCc1ccc(-c2ccc(-c3ccccc3)cc2)cc1)C(N)=O

[out]
< 6.00
< 5.00
< 5.00
6.05
< 5.00
6.59
